Sourced from patent US8940756B2

# target_or_system: c-KIT T670I kinase (Seq ID no. 6) (Homo sapiens, UniProt P10721, T670I)
# Construct: GST (N); TEV cleavage site (N)
# Sequence (P10721 544-976 T670I): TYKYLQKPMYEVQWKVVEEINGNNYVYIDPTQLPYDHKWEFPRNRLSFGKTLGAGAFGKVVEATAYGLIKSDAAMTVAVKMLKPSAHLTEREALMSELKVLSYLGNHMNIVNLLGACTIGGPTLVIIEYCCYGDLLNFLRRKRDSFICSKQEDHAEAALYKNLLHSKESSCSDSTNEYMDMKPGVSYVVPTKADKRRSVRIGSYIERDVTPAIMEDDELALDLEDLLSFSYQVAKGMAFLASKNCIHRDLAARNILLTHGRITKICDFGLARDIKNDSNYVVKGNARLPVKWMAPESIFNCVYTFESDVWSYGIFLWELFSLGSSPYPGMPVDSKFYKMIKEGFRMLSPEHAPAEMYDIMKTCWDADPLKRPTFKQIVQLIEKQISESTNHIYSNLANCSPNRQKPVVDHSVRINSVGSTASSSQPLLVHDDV
# test_method_notes: c-KIT T670I Kinase Assay
# measurement_parameters: enzymatic assay, ATP 200 uM
pIC50: −log10 of the molar value.
// reported pIC50 for each item listed

> print(dat)
                                   compound  measured.quantity  value.observed
1  CCn1c(=O)c(-c2cc(NC(=O)Nc3ccccc3)c(F)cc2Cl)cc2cnc(NC3CCN(C)C3)cc21 (stereo not drawn)              pIC50    6.00 to 7.00
2  CCn1c(=O)c(-c2cc(NC(=O)Nc3ccccc3)c(F)cc2F)cc2cnc(NC(C)=O)cc21              pIC50    7.00 to 8.00
3  CCn1c(=O)c(-c2cc(NC(=O)Nc3ccccc3)c(F)cc2Br)cc2cnc(NC(C)=O)cc21              pIC50    7.00 to 8.00

Exercise: Indicate the recorded pIC50 value for this compound: `CCn1c(=O)c(-c2cc(NC(=O)Nc3ccccc3)c(F)cc2F)cc2cnc(NC(=O)CC#N)cc21`
Solution: 7.00 to 8.00

Exercise: # return recorded pIC50 for entry `CCn1c(=O)c(-c2cc(NC(=O)Nc3cccc(CN4CCN(C)CC4)c3)c(F)cc2Cl)cc2cnc(NC)cc21`
Solution: 7.00 to 8.00

Exercise: For the compound `CCn1c(=O)c(-c2cc(NC(=O)Nc3ccccc3)c(F)cc2Cl)cc2cnc(NCCCN3CCOCC3)cc21` , give its measured pIC50 value.
Solution: 7.00 to 8.00

Exercise: Note pIC50 for the compound shown: `CCn1c(=O)c(-c2cc(NC(=O)Nc3ccccc3)c(F)cc2C)cc2cnc(Nc3ccc(C)nc3)cc21`
Solution: 6.00 to 7.00

Exercise: Please list pIC50 recorded for the compound `CCn1c(=O)c(-c2cc(NC(=O)Nc3ccccc3)c(F)cc2C#N)cc2cnc(NC)cc21`
Solution: 6.00 to 7.00

Exercise: Identify measured pIC50 corresponding to `CCn1c(=O)c(-c2cc(NC(=O)Nc3ccc(F)c(CN4CCOCC4)c3)c(F)cc2Cl)cc2cnc(NC=O)cc21`
Solution: 7.00 to 8.00

Exercise: Answer with the recorded pIC50 for the compound listed here: `CCn1c(=O)c(-c2cc(NC(=O)Nc3ccccc3)c(F)cc2C)cc2cnc(Nc3cnn(C)c3)cc21`
Solution: 7.00 to 8.00

Exercise: Tell us which pIC50 value is on record for `CCn1c(=O)c(-c2cc(NC(=O)Nc3ccc(F)c(CN4CCCC4)c3)c(F)cc2Cl)cc2cnc(NC)cc21`
Solution: 7.00 to 8.00

Exercise: Supply recorded pIC50 for CCn1c(=O)c(-c2cc(NC(=O)Nc3ccccc3)c(F)cc2Cl)cc2cnc(NC3CCOC3)cc21 (stereo not drawn) here.
Solution: < 6.00

Exercise: Report pIC50 for `CCn1c(=O)c(-c2cc(NC(=O)Nc3ccccc3)c(F)cc2Cl)cc2cnc(NC3CCN(C)CC3)cc21`
Solution: < 6.00

Exercise: Complete the entry with pIC50 for `CC(=O)Nc1cc2c(cn1)cc(-c1cc(NC(=O)Nc3cccc(F)c3)c(F)cc1Cl)c(=O)n2C(C)C`
Solution: 7.00 to 8.00

Exercise: Identify measured pIC50 corresponding to `CCn1c(=O)c(-c2cc(NC(=O)Nc3ccc(F)c(CN(C)C)c3)c(F)cc2Cl)cc2cnc(NC)cc21`
Solution: 7.00 to 8.00

Exercise: Return pIC50 for the following compound: `CCn1c(=O)c(-c2cc(NC(=O)Nc3ccccc3)c(F)cc2Cl)cc2cnc(N)cc21`
Solution: > 8.00

Exercise: Please indicate pIC50 recorded for `Cc1cc(F)c(NC(=O)Nc2ccccc2)cc1-c1cc2cnc(NC(=O)N3CCC3)cc2n(C(C)C)c1=O`
Solution: 7.00 to 8.00
